# System: 521955-158-R6-J3-PDC complex spheroid growth, % test/control
# experiment-notes: Anticancer human tumor 521955-158-R6-J3-PDC patient-derived pancreatic carcinoma cell line growth inhibition [Asc]
# condition-parameters: second compound 1 µM; first compound 0.0949 µM; stronger effect = lower value
Each record here notes measured viability, T/C.
The answer is to be given in %; state only the numeric part.

Cc1nc(N2CCC3(CC2)COC(C)C3N)c(CO)nc1Sc1ccnc(N)c1Cl (configuration not stated) + Cc1c(S(C)(=O)=O)c(-c2cc(F)cc(N3CCN(c4ccc(NS(=O)(=O)c5ccc(NC(CCN6CCC(C(=O)OCCCP(=O)(O)O)CC6)CSc6ccccc6)c(S(=O)(=O)C(F)(F)F)c5)cc4)CC3)c2)c(-c2ccc(Cl)cc2)n1C(C)C: 22.8

In the following, a different compound is considered.
Given the entry CCN1C(C(=O)NC23CCC(C(=O)O)(CC2)CC3)C(c2cccc(Cl)c2F)C2(C(=O)Nc3cc(Cl)ccc32)C12CCCCC2 (configuration not stated) + Cc1c(S(C)(=O)=O)c(-c2cc(F)cc(N3CCN(c4ccc(NS(=O)(=O)c5ccc(NC(CCN6CCC(C(=O)OCCCP(=O)(O)O)CC6)CSc6ccccc6)c(S(=O)(=O)C(F)(F)F)c5)cc4)CC3)c2)c(-c2ccc(Cl)cc2)n1C(C)C , report its measured viability, T/C.
39.5

###

# Tested on: 521955-158-R6-J3-PDC complex spheroid growth, % test/control
# experiment-notes: Anticancer human tumor 521955-158-R6-J3-PDC cell line growth inhibition [Asc];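 note: spheroids exposed to compounds for 7 days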
# condition-parameters: curve of first compound; second compound 0.3 µM
Each record here notes measured pIC50.
In plain terms, pIC50 is the concentration in mol/L turned into minus its base-10 logarithm.

C=C(F)C(=O)N1CCN(c2nc(OCC3CCCN3C)nc3c2CCN(c2cccc4cccc(Cl)c24)C3)CC1CC#N (stereo not given) + CCN1C(C(=O)NC23CCC(C(=O)O)(CC2)CC3)C(c2cccc(Cl)c2F)C2(C(=O)Nc3cc(Cl)ccc32)C12CCCCC2: 5.27
C#Cc1c(F)ccc2cc(O)cc(-c3ncc4c(N5CC6CCC(C5)N6)nc(OCC56CCCN5CC(F)C6)nc4c3F)c12 (stereo not given) + CCN1C(C(=O)NC23CCC(C(=O)O)(CC2)CC3)C(c2cccc(Cl)c2F)C2(C(=O)Nc3cc(Cl)ccc32)C12CCCCC2: 6.65
COc1c(OCCCN2CCOCC2)ccc2c3n(c(=NC(=O)c4cnc(N)nc4)nc12)CCN3 + CCN1C(C(=O)NC23CCC(C(=O)O)(CC2)CC3)C(c2cccc(Cl)c2F)C2(C(=O)Nc3cc(Cl)ccc32)C12CCCCC2: 6.49

In the following, a different compound is considered.
GET /values?readout=pIC50&system=521955-158-R6-J3-PDC complex spheroid growth, % test/control&item= O=C(c1ccc(F)c(F)c1Nc1ccc(I)cc1F)N1CC(O)([C@@H]2CCCCN2)C1 + CCN1C(C(=O)NC23CCC(C(=O)O)(CC2)CC3)C(c2cccc(Cl)c2F)C2(C(=O)Nc3cc(Cl)ccc32)C12CCCCC2
6.25

###

Each record here notes measured viability, T/C.
# Tested on: 521955-158-R6-J3-PDC complex spheroid growth, % test/control
# experiment-notes: Anticancer human tumor 521955-158-R6-J3-PDC cell line growth inhibition [Asc];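 note: spheroids exposed to compounds for 7 days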;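 for viability, T/C: 100% = DMSO vehicle control wells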
# condition-parameters: second compound 0.0316 µM; first compound 0.1 µM; stronger effect = lower value
The answer is to be given in %; state only the numeric part.

O=C(c1ccc(F)c(F)c1Nc1ccc(I)cc1F)N1CC(O)([C@@H]2CCCCN2)C1 + Cc1c(S(C)(=O)=O)c(-c2cc(F)cc(N3CCN(c4ccc(NS(=O)(=O)c5ccc(NC(CCN6CCC(C(=O)OCCCP(=O)(O)O)CC6)CSc6ccccc6)c(S(=O)(=O)C(F)(F)F)c5)cc4)CC3)c2)c(-c2ccc(Cl)cc2)n1C(C)C: 85

Given the entry NC1CCC(NC2CC2c2ccccc2)CC1 (configuration not stated) + Cc1c(S(C)(=O)=O)c(-c2cc(F)cc(N3CCN(c4ccc(NS(=O)(=O)c5ccc(NC(CCN6CCC(C(=O)OCCCP(=O)(O)O)CC6)CSc6ccccc6)c(S(=O)(=O)C(F)(F)F)c5)cc4)CC3)c2)c(-c2ccc(Cl)cc2)n1C(C)C , report its measured viability, T/C.
90.4

###

Each record here notes measured viability, T/C.
# Test system: 521955-158-R6-J3-PDC complex spheroid growth, % test/control
# experiment-notes: Anticancer human tumor 521955-158-R6-J3-PDC cell line growth inhibition [Asc];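 note: spheroids exposed to compounds for 7 days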;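 for viability, T/C: 100% = DMSO vehicle control wells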
# condition-parameters: second compound 0.03 µM; first compound 0.316 µM; stronger effect = lower value
The answer is to be given in %; state only the numeric part.

C=C(F)C(=O)N1CCN(c2nc(OCC3CCCN3C)nc3c2CCN(c2cccc4cccc(Cl)c24)C3)CC1CC#N (stereo not drawn) + CCN1C(C(=O)NC23CCC(C(=O)O)(CC2)CC3)C(c2cccc(Cl)c2F)C2(C(=O)Nc3cc(Cl)ccc32)C12CCCCC2: 111
C#Cc1c(F)ccc2cc(O)cc(-c3ncc4c(N5CC6CCC(C5)N6)nc(OCC56CCCN5CC(F)C6)nc4c3F)c12 (stereo not drawn) + CCN1C(C(=O)NC23CCC(C(=O)O)(CC2)CC3)C(c2cccc(Cl)c2F)C2(C(=O)Nc3cc(Cl)ccc32)C12CCCCC2: 47.1
O=C(c1cc(Cc2n[nH]c(=O)c3ccccc23)ccc1F)N1CCN(C(=O)C2CC2)CC1 + CCN1C(C(=O)NC23CCC(C(=O)O)(CC2)CC3)C(c2cccc(Cl)c2F)C2(C(=O)Nc3cc(Cl)ccc32)C12CCCCC2: 94.2
O=C(c1ccc(F)c(F)c1Nc1ccc(I)cc1F)N1CC(O)([C@@H]2CCCCN2)C1 + CCN1C(C(=O)NC23CCC(C(=O)O)(CC2)CC3)C(c2cccc(Cl)c2F)C2(C(=O)Nc3cc(Cl)ccc32)C12CCCCC2: 68.5

Given the entry COc1c(OCCCN2CCOCC2)ccc2c3n(c(=NC(=O)c4cnc(N)nc4)nc12)CCN3 + CCN1C(C(=O)NC23CCC(C(=O)O)(CC2)CC3)C(c2cccc(Cl)c2F)C2(C(=O)Nc3cc(Cl)ccc32)C12CCCCC2 , report its measured viability, T/C.
52.6

###

Each record here notes measured viability, T/C.
# System: 521955-158-R6-J3-PDC complex spheroid growth, % test/control
# experiment-notes: Anticancer human tumor 521955-158-R6-J3-PDC cell line growth inhibition [Asc];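 note: spheroids exposed to compounds for 7 days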;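 for viability, T/C: 100% = DMSO vehicle control wells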
# condition-parameters: second compound 0.0316 µM; first compound 0.1 µM; stronger effect = lower value
The answer is to be given in %; state only the numeric part.

Look over these answered cases.
CNC(C)C(=O)NC1CN(S(=O)(=O)c2cccc(S(=O)(=O)N3CCC4CCC(C(=O)NC(c5ccccc5)c5ccccc5)N4C(=O)C(NC(=O)C(C)NC)C3)c2)CCC2CCC(C(=O)NC(c3ccccc3)c3ccccc3)N2C1=O (stereo not drawn) + Cc1c(S(C)(=O)=O)c(-c2cc(F)cc(N3CCN(c4ccc(NS(=O)(=O)c5ccc(NC(CCN6CCC(C(=O)OCCCP(=O)(O)O)CC6)CSc6ccccc6)c(S(=O)(=O)C(F)(F)F)c5)cc4)CC3)c2)c(-c2ccc(Cl)cc2)n1C(C)C: 72.5
C#Cc1c(F)ccc2cc(O)cc(-c3ncc4c(N5CC6CCC(C5)N6)nc(OCC56CCCN5CC(F)C6)nc4c3F)c12 (stereo not drawn) + Cc1c(S(C)(=O)=O)c(-c2cc(F)cc(N3CCN(c4ccc(NS(=O)(=O)c5ccc(NC(CCN6CCC(C(=O)OCCCP(=O)(O)O)CC6)CSc6ccccc6)c(S(=O)(=O)C(F)(F)F)c5)cc4)CC3)c2)c(-c2ccc(Cl)cc2)n1C(C)C: 44.9

In the following, a different compound is considered.
Given the entry Cn1ncnc1[C@H]1c2n[nH]c(=O)c3cc(F)cc(c23)N[C@@H]1c1ccc(F)cc1 + CNC(C)C(=O)NC1CN(S(=O)(=O)c2cccc(S(=O)(=O)N3CCC4CCC(C(=O)NC(c5ccccc5)c5ccccc5)N4C(=O)C(NC(=O)C(C)NC)C3)c2)CCC2CCC(C(=O)NC(c3ccccc3)c3ccccc3)N2C1=O , report its measured viability, T/C.
92.1

###

# Tested on: 521955-158-R6-J3-PDC complex spheroid growth, % test/control
# experiment-notes: Anticancer human tumor 521955-158-R6-J3-PDC cell line growth inhibition [Asc];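 note: spheroids exposed to compounds for 7 days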;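 for viability, T/C: 100% = DMSO vehicle control wells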
# condition-parameters: second compound 0.0316 µM; first compound 0.316 µM; stronger effect = lower value
# note: boundary value 70% maps to no (0); viability, T/C below it maps to yes (1)

Worked set:
C#Cc1c(F)ccc2cc(O)cc(-c3ncc4c(N5CC6CCC(C5)N6)nc(OCC56CCCN5CC(F)C6)nc4c3F)c12 (stereo unspecified) + CNC(C)C(=O)NC1CN(S(=O)(=O)c2cccc(S(=O)(=O)N3CCC4CCC(C(=O)NC(c5ccccc5)c5ccccc5)N4C(=O)C(NC(=O)C(C)NC)C3)c2)CCC2CCC(C(=O)NC(c3ccccc3)c3ccccc3)N2C1=O: yes (1)
O=C(c1cc(Cc2n[nH]c(=O)c3ccccc23)ccc1F)N1CCN(C(=O)C2CC2)CC1 + Cc1c(S(C)(=O)=O)c(-c2cc(F)cc(N3CCN(c4ccc(NS(=O)(=O)c5ccc(NC(CCN6CCC(C(=O)OCCCP(=O)(O)O)CC6)CSc6ccccc6)c(S(=O)(=O)C(F)(F)F)c5)cc4)CC3)c2)c(-c2ccc(Cl)cc2)n1C(C)C: no (0)
C#Cc1c(F)ccc2cc(O)cc(-c3ncc4c(N5CC6CCC(C5)N6)nc(OCC56CCCN5CC(F)C6)nc4c3F)c12 (stereo unspecified) + Cc1c(S(C)(=O)=O)c(-c2cc(F)cc(N3CCN(c4ccc(NS(=O)(=O)c5ccc(NC(CCN6CCC(C(=O)OCCCP(=O)(O)O)CC6)CSc6ccccc6)c(S(=O)(=O)C(F)(F)F)c5)cc4)CC3)c2)c(-c2ccc(Cl)cc2)n1C(C)C: yes (1)
O=C(c1ccc(F)c(F)c1Nc1ccc(I)cc1F)N1CC(O)([C@@H]2CCCCN2)C1 + CNC(C)C(=O)NC1CN(S(=O)(=O)c2cccc(S(=O)(=O)N3CCC4CCC(C(=O)NC(c5ccccc5)c5ccccc5)N4C(=O)C(NC(=O)C(C)NC)C3)c2)CCC2CCC(C(=O)NC(c3ccccc3)c3ccccc3)N2C1=O: yes (1)
C=C(F)C(=O)N1CCN(c2nc(OCC3CCCN3C)nc3c2CCN(c2cccc4cccc(Cl)c24)C3)CC1CC#N (stereo unspecified) + CNC(C)C(=O)NC1CN(S(=O)(=O)c2cccc(S(=O)(=O)N3CCC4CCC(C(=O)NC(c5ccccc5)c5ccccc5)N4C(=O)C(NC(=O)C(C)NC)C3)c2)CCC2CCC(C(=O)NC(c3ccccc3)c3ccccc3)N2C1=O: no (0)

Consider the compound CCN1CCN(Cc2ccc(Nc3ncc(F)c(-c4cc(F)c5nc(C)n(C(C)C)c5c4)n3)nc2)CC1 + Cc1c(S(C)(=O)=O)c(-c2cc(F)cc(N3CCN(c4ccc(NS(=O)(=O)c5ccc(NC(CCN6CCC(C(=O)OCCCP(=O)(O)O)CC6)CSc6ccccc6)c(S(=O)(=O)C(F)(F)F)c5)cc4)CC3)c2)c(-c2ccc(Cl)cc2)n1C(C)C . Is its viability, T/C strictly less than 70%?
yes (1)

Values compiled from PubChem BioAssay AID1963451.
